Biological target: human orexin 2 receptors (Homo sapiens (Human), UniProt O43614)
Sequence (O43614 whole entry): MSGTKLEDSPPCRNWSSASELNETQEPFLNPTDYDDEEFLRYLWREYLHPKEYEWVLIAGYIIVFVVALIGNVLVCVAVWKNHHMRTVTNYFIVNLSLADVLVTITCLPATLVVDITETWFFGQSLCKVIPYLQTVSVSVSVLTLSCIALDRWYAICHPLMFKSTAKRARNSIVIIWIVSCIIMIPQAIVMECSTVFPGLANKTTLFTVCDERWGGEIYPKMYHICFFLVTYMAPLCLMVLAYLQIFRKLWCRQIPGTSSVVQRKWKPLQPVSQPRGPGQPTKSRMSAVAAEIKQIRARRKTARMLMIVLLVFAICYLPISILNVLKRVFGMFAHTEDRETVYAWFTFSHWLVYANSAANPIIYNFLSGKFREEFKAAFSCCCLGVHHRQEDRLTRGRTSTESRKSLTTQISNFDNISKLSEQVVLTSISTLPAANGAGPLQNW
Experiment: Calcium Accumulation in Cells (FLIPR), antagonism of orexin A
Type: cell-based
Conditions: measured at a concentration of 10 μM of compound; read-out: FLIPR hOx2R % inhibition value
quantityMeasured: inhibition at 10 µM

molecule	recordedMeasurement
Cc1cc(OCC(=O)NC(C)c2cc(CC(C)(C)C)on2)nc2c1c(C1CC1)nn2C (stereo not shown)	< 10%
COc1cccc([C@H](C)NC(=O)COc2cc(C)c3c(C4CC4)nn(C)c3n2)c1	43%
Cc1cc(OCC(=O)NC(C)c2cccnc2)nc2c1c(-c1ccccc1)nn2C (stereo not shown)	39%
CC(C)c1noc(C(C)NC(=O)COc2cc(C(F)(F)F)c3c(-c4ccccc4)nn(C)c3n2)n1 (stereo not shown)	30%
CC(C)CCNC(=O)COc1cc(C(F)(F)F)c2c(-c3ccccc3)nn(C)c2n1	16%
Cc1cc(OCC(=O)NCC2CCCCC2)nc2c1c(C1CC1)nn2C	< 10%
Cc1cc(OCC(=O)NC(C)c2ccccn2)nc2c1c(-c1ccccc1)nn2C (stereo not shown)	30%
Cc1cc(OCC(=O)NC(C)c2cnn(C)c2)nc2c1c(C1CC1)nn2C (stereo not shown)	31%
Cc1cc(OCC(=O)NC(C)c2nc3ccc(Cl)cc3s2)nc2c1c(C1CC1)nn2C (stereo not shown)	26%
Cc1cc(OCC(=O)NCC(C)C)nc2c1c(C1CC1)nn2C	19%

---

Recorded log10(Ki) for the following compounds
Biological target: human orexin 2 receptors (Homo sapiens (Human), UniProt O43614)
Test: Calcium Accumulation in Cells (FLIPR), antagonism of orexin A
Details: antagonism of orexin A, Cheng-Prusoff corrected; read-out: FLIPR hOx2R Ki
quantityMeasured: log10(Ki) (log10 of the value in nM)

compound	testedSystem	log10(Ki)
COc1ccnc(-c2nn(C)c3nc(OCC(=O)N[C@@H](C)c4ccc(C)cc4)cc(C)c23)n1	human orexin 2 receptors (Homo sapiens (Human), UniProt O43614)	1.59
Cc1ccc([C@H](C)NC(=O)COc2cc(C(F)(F)F)c3c(C4CC4)nn(C)c3n2)cc1	human orexin 2 receptors (Homo sapiens (Human), UniProt O43614)	0.78
Cc1ccc([C@H](C)NC(=O)COc2cc(C)c3c(-c4nc(C)cs4)nn(C)c3n2)cc1	human orexin 2 receptors (Homo sapiens (Human), UniProt O43614)	1.00
Cc1ccc(C(C)NC(=O)COc2cc(C(F)(F)F)c3c(-c4ccccc4)nn(C)c3n2)cn1 (stereo not drawn)	human orexin 2 receptors (Homo sapiens (Human), UniProt O43614)	1.32
Cc1ccc([C@H](C)NC(=O)COc2cc(C)c3c(-c4cnc(C)n4C)nn(C)c3n2)cc1	human orexin 2 receptors (Homo sapiens (Human), UniProt O43614)	2.86
C[C@H](NC(=O)COc1cc(C2CC2)c2c(-c3ccccc3)nn(C)c2n1)c1ccccc1	human orexin 2 receptors (Homo sapiens (Human), UniProt O43614)	2.75
COc1ccc(CNC(=O)COc2cc(C)c3c(C4CC4)nn(C)c3n2)c(OC)c1	human orexin 2 receptors (Homo sapiens (Human), UniProt O43614)	2.67
Cc1ccc(-c2nn(C)c3nc(OCC(=O)N[C@@H](C)c4ccccc4)cc(C(F)(F)F)c23)cc1	human orexin 2 receptors (Homo sapiens (Human), UniProt O43614)	1.88
Cc1ccc([C@H](C)NC(=O)COc2cc(C)c3c(-c4ncc(C)s4)nn(C)c3n2)cc1	human orexin 2 receptors (Homo sapiens (Human), UniProt O43614)	0.70
Cc1nn(C)c(C)c1C(C)NC(=O)COc1cc(C(F)F)c2c(-c3ccccc3)nn(C)c2n1 (stereo not drawn)	human orexin 2 receptors (Homo sapiens (Human), UniProt O43614)	1.77
Cc1ccc([C@H](C)NC(=O)COc2cc(C)c3c(-c4ncccc4F)nn(C)c3n2)cc1	human orexin 2 receptors (Homo sapiens (Human), UniProt O43614)	1.54
Cc1ccc2c(n1)CC[C@@H]2NC(=O)COc1cc(C)c2c(C3CC3)nn(C)c2n1	human orexin 2 receptors (Homo sapiens (Human), UniProt O43614)	1.34
COc1ccccc1[C@H](C)NC(=O)COc1cc(C)c2c(C3CC3)nn(C)c2n1	human orexin 2 receptors (Homo sapiens (Human), UniProt O43614)	2.65
COc1ccc([C@H](C)NC(=O)COc2cc(C(F)F)c3c(C4CC4)nn(C)c3n2)cc1	human orexin 2 receptors (Homo sapiens (Human), UniProt O43614)	1.32
C[C@H](NC(=O)COc1cc(C(F)(F)F)c2c(-c3ccccc3)nn(C)c2n1)c1ccccc1	human orexin 2 receptors (Homo sapiens (Human), UniProt O43614)	2.03
Cc1ccc2c(cnn2C)c1CNC(=O)COc1cc(C)c2c(C3CC3)nn(C)c2n1	human orexin 2 receptors (Homo sapiens (Human), UniProt O43614)	2.92
Cc1cc(OCC(=O)NCCc2ccccc2)nc2c1c(C1CC1)nn2C	human orexin 2 receptors (Homo sapiens (Human), UniProt O43614)	2.79
Cc1cccc(-c2nn(C)c3nc(OCC(=O)N[C@@H](C)c4ccccc4)cc(C(F)(F)F)c23)c1	human orexin 2 receptors (Homo sapiens (Human), UniProt O43614)	1.94
